- test target: Transient receptor potential cation channel subfamily A member 1 (Rattus norvegicus, UniProt Q6RI86)
- Sequence (Q6RI86 whole entry): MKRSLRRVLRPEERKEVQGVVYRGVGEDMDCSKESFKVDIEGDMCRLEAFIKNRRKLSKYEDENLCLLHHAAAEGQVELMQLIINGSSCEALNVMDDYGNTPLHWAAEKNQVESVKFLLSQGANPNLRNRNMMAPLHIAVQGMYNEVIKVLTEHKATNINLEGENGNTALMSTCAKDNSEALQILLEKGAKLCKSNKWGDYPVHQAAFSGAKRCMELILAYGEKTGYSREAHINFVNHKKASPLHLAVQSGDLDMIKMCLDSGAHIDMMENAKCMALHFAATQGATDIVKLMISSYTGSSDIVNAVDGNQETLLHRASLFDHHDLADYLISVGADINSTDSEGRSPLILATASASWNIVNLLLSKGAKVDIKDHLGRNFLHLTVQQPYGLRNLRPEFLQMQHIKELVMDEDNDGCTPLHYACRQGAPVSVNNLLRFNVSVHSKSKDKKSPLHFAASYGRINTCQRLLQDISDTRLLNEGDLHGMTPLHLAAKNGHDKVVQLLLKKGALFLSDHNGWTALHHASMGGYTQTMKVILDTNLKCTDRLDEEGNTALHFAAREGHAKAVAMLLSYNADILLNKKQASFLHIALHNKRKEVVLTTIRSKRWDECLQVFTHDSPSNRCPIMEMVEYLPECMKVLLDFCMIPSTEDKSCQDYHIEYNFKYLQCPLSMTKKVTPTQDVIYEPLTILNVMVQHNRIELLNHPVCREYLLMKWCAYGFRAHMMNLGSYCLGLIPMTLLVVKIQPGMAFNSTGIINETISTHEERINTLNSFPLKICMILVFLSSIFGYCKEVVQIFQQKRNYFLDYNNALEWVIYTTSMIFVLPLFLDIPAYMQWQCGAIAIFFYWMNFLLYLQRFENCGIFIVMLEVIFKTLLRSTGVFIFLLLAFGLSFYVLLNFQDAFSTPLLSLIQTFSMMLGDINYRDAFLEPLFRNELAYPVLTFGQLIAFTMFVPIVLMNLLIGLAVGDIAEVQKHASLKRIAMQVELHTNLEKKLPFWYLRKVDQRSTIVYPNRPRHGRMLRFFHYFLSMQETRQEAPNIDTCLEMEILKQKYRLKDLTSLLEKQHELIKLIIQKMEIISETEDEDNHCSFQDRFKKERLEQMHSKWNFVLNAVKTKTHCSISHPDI
- test description: Agonist activity at rat TRPA1 expressed in HEK293 cells assessed as induction of intracellular calcium level in presence of AITC
- Format: cell-based
metric: pIC50
// field semantics: pIC50 = negative decimal log of concentration (mol/L)

(Q) Give reported pIC50 value for Oc1ccc(/C=C/c2cc(O)cc(O)c2)cc1 [RESVERATROL]
(A) 5.56

====

- test target: Transient receptor potential cation channel subfamily A member 1 (Rattus norvegicus)
- test description: Antagonist activity at rat TRPA1 expressed in HEK293 cells assessed as inhibition of allyl isothiocyanate-induced increase of intracellular calcium level
- Format: cell-based
Below, each entry is listed alongside its reported IC50.
Report the figure in µM without appending any unit label.

(Q) Output IC50 of Oc1ccc(/C=C/c2cccc(O)c2)cc1 [(E)-3,4'-STILBENDIOL]
(A) 16.5

(Q) Complete the entry with IC50 for COc1cccc(/C=C/c2ccccc2)c1
(A) 2.3

(Q) Please report the measured IC50 for Oc1cccc(/C=C/c2ccccc2)c1 [(E)-3-STILBENOL]
(A) 3.4

(Q) For the compound COc1cc(/C=C/c2ccc(O)cc2)cc(OC)c1 , give its reported IC50.
(A) 7.5

====

- test target: Transient receptor potential cation channel subfamily A member 1 (Rattus norvegicus, UniProt Q6RI86)
- test description: Antagonist activity at rat TRPA1 expressed in HEK293 cells assessed as inhibition of allyl isothiocyanate-induced increase of intracellular calcium level
- Type: cell-based
metric: pIC50
pIC50 here: minus log base 10 of the concentration, concentration in moles per litre.

Worked cases, answers included:
(Q) Specify reported pIC50 for the compound shown: Oc1cc(O)cc(/C=C/c2ccccc2)c1
(A) 4.92

(Q) State, in one line, measured pIC50 of CC(=O)Oc1ccccc1/C=C/c1ccccc1
(A) 5.07

(Q) Fill in reported pIC50 for this entry: COc1ccccc1/C=C/c1ccccc1
(A) 5.77

(Q) Return the recorded pIC50 value; entry: Oc1ccc(/C=C/c2ccc(O)cc2)cc1 [TRANS-4,4'-DIHYDROXYSTILBENE]
(A) 4.60

***
(Q) Give recorded pIC50. COc1ccc(/C=C/c2cc(OC)cc(OC)c2)cc1
(A) 5.52

(Q) Specify measured pIC50 for COc1cccc(/C=C/c2ccc(O)cc2)c1 [(E)-5-METHOXY-4'-STILBENOL] .
(A) 5.00

====

- test target: Transient receptor potential cation channel subfamily A member 1 (Rattus norvegicus) (UniProt Q6RI86)
- Sequence (Q6RI86 whole entry): as above
- test description: Agonist activity at rat TRPA1 expressed in HEK293 cells assessed as induction of intracellular calcium level relative to allyl isothiocyanate
- Format: cell-based
Entries and their measured Efficacy follow.

(Q) Look up and report measured Efficacy for this entry: COc1cccc(/C=C/c2ccccc2)c1
(A) 101%

Next:
(Q) Consider the compound COc1cc(O)cc(/C=C/c2ccccc2)c1 [PINOSYLVIN METHYL ETHER] . State its measured Efficacy.
(A) 71.4%

(Q) Report Efficacy, nothing else, for this compound: Oc1cccc(/C=C/c2ccccc2)c1 [(E)-3-STILBENOL]
(A) 77.4%

(Q) Assign Efficacy to the following record: Oc1ccc(/C=C/c2cccc(O)c2)cc1 [(E)-3,4'-STILBENDIOL]
(A) 73.4%

====

- test target: Transient receptor potential cation channel subfamily A member 1 (Homo sapiens, UniProt O75762)
- Sequence (O75762 whole entry): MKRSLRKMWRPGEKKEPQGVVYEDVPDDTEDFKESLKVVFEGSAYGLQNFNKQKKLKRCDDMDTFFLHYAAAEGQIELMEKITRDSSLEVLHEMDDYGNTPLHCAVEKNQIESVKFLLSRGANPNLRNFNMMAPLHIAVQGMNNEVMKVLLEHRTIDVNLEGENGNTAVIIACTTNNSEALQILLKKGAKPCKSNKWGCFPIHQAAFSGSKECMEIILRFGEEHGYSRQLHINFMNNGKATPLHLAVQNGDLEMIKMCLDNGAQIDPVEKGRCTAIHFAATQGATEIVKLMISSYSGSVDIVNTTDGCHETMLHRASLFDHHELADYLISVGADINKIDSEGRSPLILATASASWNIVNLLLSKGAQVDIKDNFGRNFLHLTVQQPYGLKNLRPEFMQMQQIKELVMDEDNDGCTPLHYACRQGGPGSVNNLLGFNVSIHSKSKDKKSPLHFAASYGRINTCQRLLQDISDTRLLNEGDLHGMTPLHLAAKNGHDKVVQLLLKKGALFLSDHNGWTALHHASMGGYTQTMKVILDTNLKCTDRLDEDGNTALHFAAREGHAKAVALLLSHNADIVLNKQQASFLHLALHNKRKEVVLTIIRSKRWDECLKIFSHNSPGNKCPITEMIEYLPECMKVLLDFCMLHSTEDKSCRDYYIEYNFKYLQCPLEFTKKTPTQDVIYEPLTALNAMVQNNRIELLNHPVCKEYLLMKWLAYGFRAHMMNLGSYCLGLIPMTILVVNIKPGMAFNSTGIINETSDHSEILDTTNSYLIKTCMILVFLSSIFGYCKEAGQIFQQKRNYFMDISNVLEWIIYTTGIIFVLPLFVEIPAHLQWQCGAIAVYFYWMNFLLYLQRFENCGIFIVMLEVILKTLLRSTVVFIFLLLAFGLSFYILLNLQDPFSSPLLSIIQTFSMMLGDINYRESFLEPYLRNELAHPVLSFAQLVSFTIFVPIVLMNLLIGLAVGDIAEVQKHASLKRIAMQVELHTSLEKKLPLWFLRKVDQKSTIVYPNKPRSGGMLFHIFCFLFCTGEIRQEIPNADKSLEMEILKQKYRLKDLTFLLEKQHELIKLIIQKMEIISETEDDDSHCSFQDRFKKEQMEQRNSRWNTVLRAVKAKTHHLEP
- test description: Antagonist activity at human TRPA1 expressed in HEK293 cells assessed as inhibition of allyl isothiocyanate-induced increase of intracellular calcium level
metric: pIC50
The meaning of pIC50 here: minus log10 of the concentration in molar units.

(Q) Give me measured pIC50, please, for this molecule: COc1ccc(/C=C/c2ccccc2)cc1
(A) 4.92

====

- test target: Transient receptor potential cation channel subfamily A member 1 (Rattus norvegicus) (UniProt Q6RI86)
- test description: Agonist activity at rat TRPA1 expressed in HEK293 cells assessed as induction of intracellular calcium level relative to allyl isothiocyanate
- Format: cell-based
metric: Efficacy
Mention the unit after the number when you answer.

(Q) Return reported Efficacy. Input molecule: COc1ccc(/C=C/c2ccccc2)cc1
(A) 49%

(Q) Quickly give me recorded Efficacy for COc1cccc(/C=C/c2ccc(O)cc2)c1 [(E)-5-METHOXY-4'-STILBENOL]
(A) 41.8%

(Q) Report Efficacy for Oc1ccccc1/C=C/c1ccccc1
(A) 88.4%

(Q) Could you please provide reported Efficacy for Oc1ccc(/C=C/c2ccccc2)cc1 [(E)-4-STYRYLPHENOL] ? Thanks!
(A) 61.9%

(Q) Using known records, supply Efficacy for Oc1ccc(/C=C/c2ccc(O)cc2)cc1 [TRANS-4,4'-DIHYDROXYSTILBENE]
(A) 40%

(Q) Using known records, supply Efficacy for COc1ccccc1/C=C/c1ccccc1
(A) 83.4%

====

- test target: Transient receptor potential cation channel subfamily A member 1 (Rattus norvegicus)
- test description: Agonist activity at rat TRPA1 expressed in HEK293 cells assessed as induction of intracellular calcium level
metric: EC50 (µM)
Please give a number only; it is taken to be in µM.

(Q) Give reported EC50 for Oc1ccc(/C=C/c2ccc(O)cc2)cc1 [TRANS-4,4'-DIHYDROXYSTILBENE] (Transient receptor potential cation channel subfamily A member 1 (Rattus norvegicus))
(A) 11

***
(Q) Would you please give the reported EC50 of COc1ccc(/C=C/c2ccc(OC)cc2)cc1 with Transient receptor potential cation channel subfamily A member 1 (Rattus norvegicus)?
(A) 4.2

(Q) Provide EC50, tested on Transient receptor potential cation channel subfamily A member 1 (Rattus norvegicus), for COc1ccc(/C=C/c2ccc(O)cc2)cc1 .
(A) 10.1

====

- test target: Transient receptor potential cation channel subfamily A member 1 (Rattus norvegicus)
- test description: Antagonist activity at rat TRPA1 expressed in HEK293 cells assessed as inhibition of allyl isothiocyanate-induced increase of intracellular calcium level
- Format: cell-based
# Lookup of reported IC50 keyed by entry
Write your answer as a measured quantity: the number, then the unit.

(Q) Report measured IC50; entry is Oc1ccc(/C=C/c2cc(O)cc(O)c2)cc1
(A) 19.9 µM

Others:
(Q) Note down IC50 recorded for COc1ccc(/C=C/c2cccc(OC)c2)cc1
(A) 2.9 µM

(Q) // Input: COc1cc(O)cc(/C=C/c2ccccc2)c1 . Output its IC50 only.
(A) 6.9 µM

(Q) Given Oc1ccc(/C=C/c2ccccc2)cc1 [(E)-4-STYRYLPHENOL] , respond with its IC50.
(A) 5.5 µM

(Q) Output IC50 of COc1ccc(/C=C/c2ccccc2)cc1
(A) 17.8 µM

====

- test target: Transient receptor potential cation channel subfamily A member 1 (Rattus norvegicus) (UniProt Q6RI86)
- test description: Agonist activity at rat TRPA1 expressed in HEK293 cells assessed as induction of intracellular calcium level relative to allyl isothiocyanate
- Type: cell-based
metric: Efficacy (%)
Write the number in % without appending the unit.

(Q) Tell me measured Efficacy for COc1cc(/C=C/c2ccccc2)cc(OC)c1 please.
(A) 84.1

(Q) Kindly indicate its recorded Efficacy. Item: COc1ccc(/C=C/c2ccc(OC)cc2)cc1
(A) 86.7

New cases:
(Q) Note down Efficacy recorded for COc1cc(/C=C/c2ccc(O)cc2)cc(OC)c1
(A) 71.1

(Q) Indicate its recorded Efficacy; the molecule in question is COc1ccc(/C=C/c2cccc(OC)c2)cc1
(A) 75

(Q) Provide one value: measured Efficacy of CC(=O)Oc1ccc(/C=C/c2ccccc2)cc1
(A) 89.7
